targetOfAssay: T1, L-selectin (LS-Rg) (Homo sapiens, UniProt P14151 P14151:39-332)
T1 chain: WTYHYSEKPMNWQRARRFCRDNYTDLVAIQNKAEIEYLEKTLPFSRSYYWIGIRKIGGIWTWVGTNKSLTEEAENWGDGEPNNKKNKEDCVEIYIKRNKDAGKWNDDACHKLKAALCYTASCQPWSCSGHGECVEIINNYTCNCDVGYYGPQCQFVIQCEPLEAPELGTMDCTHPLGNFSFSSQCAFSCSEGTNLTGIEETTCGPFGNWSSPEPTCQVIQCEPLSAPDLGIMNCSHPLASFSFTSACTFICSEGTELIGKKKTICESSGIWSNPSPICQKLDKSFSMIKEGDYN
experimentNotes: filter; room temp; 1.6 nM at 37 C
testContext: tags: human IgG2 Fc fusion (provided by A. Varki); label: 32P
readoutLabel: Kd (nM)
Return type: number; implicit unit nM.

Problem: Recorded Kd for 239 (ssDNA) DNA: CTACCTACGATCTGACTAGCCCACAGACAATCGCAGTCCCCGTGTAGCTCTGGGTGTCTGCTTACTCTCATGTAGTTCC , please?
Result: 0.17
